Test system: SR
ASSAY_TEXT: NCI tumour cell line growth inhibition, 48 h
Active and inactive are the calls of the source. No stated cut-off is given here; in the data, active = GI50 up to about 1.1 µM and inactive = higher.
REPORTED_METRIC: GI50

Below, each entry is followed by its recorded GI50 result.
[[record]]
molecule = "COC(=O)C(C)(C)NC(=O)C(Cc1ccccc1)Nc1ncnc2c1ncn2-c1ccc(OC)cc1 (centres undefined)"
measured_target = "SR"
reported_metric = "GI50"
endpoint_value = "> 10 µM (inactive)"

[[record]]
molecule = "C=CCN1C[C@@H](C)N([C@@H](c2ccccc2)c2ccc(C(=O)N(CC)CC)cc2)C[C@@H]1C"
measured_target = "SR"
reported_metric = "GI50"
endpoint_value = "> 100 µM (inactive)"

[[record]]
molecule = "Cc1ccc(C(=O)N/N=C(\\N=N\\c2cccc(C)c2)c2ccc(N(CCC#N)CCC#N)cc2C)cc1"
measured_target = "SR"
reported_metric = "GI50"
endpoint_value = "55.1 µM (inactive)"


Please turn your attention to the following entry.
# query: GI50 | item CO/S(=N/S(=O)(=O)c1ccccc1)c1ccccc1[N+](=O)[O-] (centres undefined) | system: SR
> 100 µM (inactive)

Value source: ChEMBL document CHEMBL1201862
